- test-details: Metabolic stability in human hepatocytes assessed as intrinsic clearance measured per 10^6 cells
- Type: ADME, cell-based, Hepatocyte
- cond: read-out: CLH
outcome-measure: hepatocyte CLint

c1cc2c(cc1-c1cnc3[nH]nc(-c4ccc(N5C[C@H]6C[C@@H]5CO6)cc4)c3c1)CC[C@@H](N1C3COCC1C3)CC2 ... 7.2 µL/min/1e6 cells

Data request: Read off the recorded hepatocyte CLint for `Cc1cccnc1-c1ccc(-c2n[nH]c3ncc(-c4ccc5c(c4)CC[C@@H](N[C@H]4CCCOC4)CC5)cc23)cc1`
Data returned: 5.8 µL/min/1e6 cells

====

- test-details: AUCinf in Sprague-Dawley rat at 2 mg/kg, po measured up to 8 hrs by LC-MS/MS analysis
- Assay type: ADME, organism-based
- cond: in vivo
Reported AUC(0-inf) by item:
Your answer should be a plain number; it is taken to be in ng·h/mL.

CN(C)C(=O)c1ccc(-c2n[nH]c3ncc(-c4ccc5c(c4)CC[C@@H](N4C6COCC4C6)CC5)cc23)cc1 ... 4300

Data request: Read off the recorded AUC(0-inf) for `Cc1cccnc1-c1ccc(-c2n[nH]c3ncc(-c4ccc5c(c4)CC[C@@H](N4C6COCC4C6)CC5)cc23)cc1`
Data returned: 3000

Data request: Read off the recorded AUC(0-inf) for `Cc1cccnc1-c1ccc(-c2n[nH]c3ncc(-c4ccc5c(c4)CC[C@@H](N4C6COCC4C6)CC5)cc23)nc1`
Data returned: 1800

Data request: Read off the recorded AUC(0-inf) for `Cn1ccnc1-c1ccc(-c2n[nH]c3ncc(-c4ccc5c(c4)CC[C@@H](N4C6COCC4C6)CC5)cc23)cc1`
Data returned: 160

Data request: Read off the recorded AUC(0-inf) for `COCCOc1ccc(-c2n[nH]c3ncc(-c4ccc5c(c4)CC[C@@H](N4C6COCC4C6)CC5)cc23)cc1`
Data returned: 4200

Data request: Read off the recorded AUC(0-inf) for `O=C1OCCN1c1ccc(-c2n[nH]c3ncc(-c4ccc5c(c4)CC[C@@H](N4C6COCC4C6)CC5)cc23)cc1`
Data returned: 1500

Data request: Read off the recorded AUC(0-inf) for `O=S1(=O)CCCN1c1ccc(-c2n[nH]c3ncc(-c4ccc5c(c4)CC[C@@H](N4C6COCC4C6)CC5)cc23)cc1`
Data returned: 39

Data request: Read off the recorded AUC(0-inf) for `CS(=O)(=O)c1ccc(-c2n[nH]c3ncc(-c4ccc5c(c4)CC[C@@H](N4C6COCC4C6)CC5)cc23)cc1`
Data returned: 120

Data request: Read off the recorded AUC(0-inf) for `c1ccc(-c2ccc(-c3n[nH]c4ncc(-c5ccc6c(c5)CC[C@@H](N5C7COCC5C7)CC6)cc34)cc2)nc1`
Data returned: 2800

Data request: Read off the recorded AUC(0-inf) for `Cc1cccnc1-c1ccc(-c2c[nH]c3ncc(-c4ccc5c(c4)CC[C@@H](N4C6COCC4C6)CC5)cc23)cc1`
Data returned: 4800

Data request: Read off the recorded AUC(0-inf) for `Cc1cccnc1-c1ccc(-c2n[nH]c3ncc(-c4ccc5c(c4)CC[C@@](C)(N4CCC[C@H]4C)CC5)cc23)cc1`
Data returned: 380

Data request: Read off the recorded AUC(0-inf) for c1cc(-c2n[nH]c3ncc(-c4ccc5c(c4)CCC(N4C6COCC4C6)CC5)cc23)ccn1 (racemic)
Data returned: 130

====

- test-details: Metabolic stability in rat hepatocytes assessed as intrinsic clearance measured per 10^6 cells
- Assay type: ADME, cell-based, Hepatocyte
- cond: read-out: CLH
outcome-measure: hepatocyte CLint (µL/min/1e6 cells)
Your answer should be a plain number; it is taken to be in µL/min/1e6 cells.

Reference set, count: 2
Cc1cccnc1-c1ccc(-c2n[nH]c3ncc(-c4ccc5c(c4)CC[C@@H](N4C6COCC4C6)CC5)cc23)cc1 ... 2.7
c1cc2c(cc1-c1cnc3[nH]nc(-c4ccc(N5C[C@H]6C[C@@H]5CO6)cc4)c3c1)CC[C@@H](N1C3COCC1C3)CC2 ... 12

Lab note: next compound to report on.
Data request: Read off the recorded hepatocyte CLint for `COc1cccnc1-c1ccc(-c2n[nH]c3ncc(-c4ccc5c(c4)CC[C@@H](N4C6COCC4C6)CC5)cc23)cc1`
Data returned: 16

====

- test-details: Metabolic stability in human hepatocytes assessed as intrinsic clearance measured per 10^6 cells
- Type: ADME, cell-based, Hepatocyte
- cond: read-out: CLH
Reported hepatocyte CLint by item:

Reference set, count: 2
FC(F)(F)c1cccnc1-c1ccc(-c2n[nH]c3ncc(-c4ccc5c(c4)CC[C@@H](N4C6COCC4C6)CC5)cc23)cc1 ... < 2.7 µL/min/1e6 cells
Cc1cccnc1-c1ccc(-c2n[nH]c3ncc(-c4ccc5c(c4)CC[C@@](C)(N4CCC[C@H]4C)CC5)cc23)cc1 ... < 2.7 µL/min/1e6 cells

Lab note: next compound to report on.
Data request: Read off the recorded hepatocyte CLint for `CS(=O)(=O)c1ccc(-c2n[nH]c3ncc(-c4ccc5c(c4)CC[C@@H](N4C6COCC4C6)CC5)cc23)cc1`
Data returned: 5.8 µL/min/1e6 cells
